Target: acetylcholinesterase (Type V-S: from electric eel) (Electrophorus electricus)
Construct: purchased Sigma Chemical Co., U.S.A. Type V-S
Test: Measurement of acetylcholinesterase activity (modified Ellman's method)
Assay type: biochemical
Conditions: 0.03 U enzyme, 37° C., 412 nm; read-out: AChE Inhibition (IC50)
Simple rule here: IC50 less than 10 µM is Criterion met, otherwise Criterion not met.

Worked examples follow.
O=C(OCCCCN1CCC(OC(c2ccccc2)c2ccccc2)CC1)c1ccccc1; Criterion met
O=C(OCCCCN1CCC(OC(c2ccccc2)c2ccccc2)CC1)c1ccc(F)cc1; Criterion met
O=C(OCCCCN1CCC(OCc2ccccc2)CC1)c1cccc(F)c1; Criterion not met
O=C(OCCCCN1CCC(OCc2ccccc2)CC1)c1ccc(Cl)cc1; Criterion not met

(Q) Is it true that IC50 reported for O=C(OCCCCN1CCC(OC(c2ccccc2)c2ccccc2)CC1)c1cccnc1 is less than 10 µM?
(A) Criterion not met

(Q) Is IC50 of O=C(OCCCCN1CCC(OC(c2ccccc2)c2ccccc2)CC1)c1ccc(Cl)cc1 strictly below 10 µM?
(A) Criterion met

(Q) # strict comparison: is reported IC50 < 10 µM? input = O=C(OCCCCN1CCC(OCc2ccccc2)CC1)c1ccccc1
(A) Criterion not met

(Q) Strictly below 10 µM: is that where IC50 of O=C(OCCCCN1CCC(OC(c2ccccc2)c2ccccc2)CC1)c1ccc([N+](=O)[O-])cc1 sits?
(A) Criterion met

(Q) Answer whether the compound CC(C)c1ccc(C(=O)OCCCCN2CCC(OCc3ccccc3)CC2)cc1 has IC50 strictly less than 10 µM
(A) Criterion not met

(Q) Dear colleague, could you confirm whether IC50 of O=C(OCCCCN1CCC(OCc2ccccc2)CC1)c1ccc(F)cc1 falls below 10 µM? Thanks.
(A) Criterion not met

----------
Molecular target: β-amyloid (1-42) (Homo sapiens)
Construct: β-amyloid (1-42) was a product of American Peptide Co., U.S.A
Sequence (P05067 672-713 limits assumed): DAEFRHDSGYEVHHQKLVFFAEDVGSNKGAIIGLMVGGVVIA
Experiment: Inhibition of β-amyloid (1-42) aggregation (thioflavin T fluorescence)
Settings: 5 μM β-amyloid 1-42, 37° C., 26 hours
MEASUREMENT_KIND: pIC50
Numbers only, as −log10 of the molar value.

O=C(OCCCCN1CCC(OC(c2ccccc2)c2ccccc2)CC1)c1cccnc1; 4.21
O=C(OCCCCN1CCC(OC(c2ccccc2)c2ccccc2)CC1)c1ccc([N+](=O)[O-])cc1; 4.27
O=C(OCCCCN1CCC(OC(c2ccccc2)c2ccccc2)CC1)c1ccc(F)cc1; 4.44

Each molecule below has a recorded value; state its pIC50.
1. O=C(OCCCCN1CCC(OC(c2ccccc2)c2ccccc2)CC1)c1ccc(Cl)cc1
2. O=C(OCCCCN1CCC(OC(c2ccccc2)c2ccccc2)CC1)c1ccccc1
3. O=C(Nc1ccc(F)cc1)OCCCCN1CCC(OC(c2ccccc2)c2ccccc2)CC1
4. O=C(OCCCCN1CCC(OC(c2ccccc2)c2ccccc2)CC1)c1cccc(F)c1

(A)
1: 4.55; 2: 4.39; 3: 3.94; 4: 4.47

----------
Biological target: acetylcholinesterase (Type V-S: from electric eel) (Electrophorus electricus, UniProt O42275)
Sequence (O42275 24-633): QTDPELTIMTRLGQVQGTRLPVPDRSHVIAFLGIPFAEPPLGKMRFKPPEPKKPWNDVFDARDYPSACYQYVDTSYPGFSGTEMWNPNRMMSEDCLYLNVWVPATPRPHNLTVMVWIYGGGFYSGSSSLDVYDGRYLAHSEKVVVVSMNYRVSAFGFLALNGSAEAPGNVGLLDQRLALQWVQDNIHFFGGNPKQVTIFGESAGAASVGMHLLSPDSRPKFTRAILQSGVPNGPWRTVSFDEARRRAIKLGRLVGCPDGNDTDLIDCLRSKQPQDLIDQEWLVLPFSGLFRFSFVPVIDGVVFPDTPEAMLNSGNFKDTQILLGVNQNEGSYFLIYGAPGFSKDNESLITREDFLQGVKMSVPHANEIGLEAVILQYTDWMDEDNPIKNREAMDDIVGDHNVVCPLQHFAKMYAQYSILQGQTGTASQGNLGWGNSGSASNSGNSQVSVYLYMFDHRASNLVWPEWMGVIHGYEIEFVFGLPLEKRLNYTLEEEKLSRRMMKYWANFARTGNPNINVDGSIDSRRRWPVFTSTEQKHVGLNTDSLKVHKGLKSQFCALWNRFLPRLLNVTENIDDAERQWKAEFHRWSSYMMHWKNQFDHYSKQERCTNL
Assay: Measurement of acetylcholinesterase activity (modified Ellman's method)
Conditions: 0.03 U enzyme, 37° C., 412 nm; read-out: AChE Inhibition (IC50)
MEASUREMENT_KIND: IC50 (µM)
Numbers only, in µM.

Before answering, review these 2 worked examples.
O=C(OCCCCN1CCC(OC(c2ccccc2)c2ccccc2)CC1)c1cccc(F)c1; 70.7
CC(C)(C)c1ccc(C(=O)OCCCCN2CCC(OCc3ccccc3)CC2)cc1; 12.2

(Q) Specify measured IC50 for O=C(Nc1ccc(F)cc1)OCCCCN1CCC(OC(c2ccccc2)c2ccccc2)CC1 .
(A) 2.45
